The measurements presented in this section are drawn from the supplement of paper PMC10724198.

system: Saccharomyces cerevisiae; assay: protein stability index of tFT-peptide fusion (C-terminal peptide) (PSI (0-1 scale)); higher = more stable (slower turnover); details: genetic background: das1 deletion; temperature: 30 C
measuredProperty: protein stability index

> print(dat)
                            polymersequence  measuredresult
 1    DAHIYNKRSKPD [PHO80 C-terminal 12 aa]           0.646
 2     RHSCGRQMRVLA [AUA1 C-terminal 12 aa]           0.661
 3     PKWTDCEGDLTT [DET1 C-terminal 12 aa]           0.712
 4     SKFIEKFQDIVS [MED1 C-terminal 12 aa]           0.701
 5     VMLNSVSISLNK [COG5 C-terminal 12 aa]           0.711
 6   AKLSEGTSFRRK [RPS27A C-terminal 12 aa]           0.695
 7     FINKIYHQKVNL [TMN3 C-terminal 12 aa]           0.707
 8     QVLGTEEPTVRT [PGM2 C-terminal 12 aa]           0.696
 9  LRSKGKRYDTRS [YJR018W C-terminal 12 aa]           0.704
10    TKNLVPGFSDLM [SEC61 C-terminal 12 aa]           0.708
11  ILGAYLIDCVCC [YGL069C C-terminal 12 aa]           0.576
12     VLIVLLVLAFIA [TLG1 C-terminal 12 aa]           0.284
13     LVPEEEEETKDR [GRX5 C-terminal 12 aa]           0.721
14    LQESKSQEKNKI [MRX19 C-terminal 12 aa]           0.713
15     ARTSDELQFTLP [MPT5 C-terminal 12 aa]           0.716
16    IEHVKYDNIVSP [UBC12 C-terminal 12 aa]           0.697
17  YSYSSPKYTFPC [YKL147C C-terminal 12 aa]           0.697
18     NKVEENLEGLYL [RPT2 C-terminal 12 aa]           0.693
19     TPDVLAAGPQFE [PCK1 C-terminal 12 aa]           0.707
20  LYPLFEAVPFRR [YBL096C C-terminal 12 aa]           0.729
21     AYLQYYSESPEN [DUG1 C-terminal 12 aa]           0.707
22     LKHNGQRKLAST [ANT1 C-terminal 12 aa]           0.685

---

tested on: Saccharomyces cerevisiae; test: protein stability index of tFT-peptide fusion in wild type (PSI (0-1 scale)); higher = more stable (slower turnover); settings: genetic background: wild type
Lab note: anything with protein stability index at or over 0.1 counts as label 1; the rest go in label 0.

> print(dat)
    polymersequence    class
 1     VRIAVGGWRLVG  label 1
 2     VRGAVGWWRLVG  label 1
 3     ARWMVGLWRGAS  label 1
 4     VRGAVEGWRLVG  label 1
 5     KKHKKGCKQKIN  label 0
 6     LKILRQKMNHKN  label 1
 7     LCILRQKMNHQN  label 1
 8     PSLAATFWRVVG  label 1
 9     RSLRVLPPLYFR  label 1
10     RVTRLDAIYFRY  label 1
11     RVYRLDAIYFRI  label 1
12     KKHKKGQKQKDN  label 1
13     LVVYLSCTACIN  label 0
14     PITLPMCPLLLR  label 1
15     NLVSLPILLFFR  label 0
16     GLYMCDVGCWFR  label 1
17     GLYMCSVGCWMR  label 1
18     ARWRVGLERGAS  label 1
19     FQMRWTFRYWVN  label 0
20     CLVSLPYLLFFR  label 0
21     FSMRWTFWYWVN  label 0
22     PDKWNHLIKLLN  label 0
23     AITLPMCPLLMR  label 1
24    GLYMCSVGCWFRV  label 1
25     RVTRLDAIYYRI  label 1
26     WKILRQKMNHQN  label 1
27     VRGARGGWRLVG  label 1
28     LVVYRSCVACIN  label 1
29     TLYMCSVGCWFR  label 1
30     RLICPLPVQFLN  label 0
31     RVTRLDAIYFMI  label 1
32     LVVYLSCVACSN  label 0
